# Tested on: blackgrass
# Experimental details: Test B pre/postemergence blackgrass
# Type: in vivo, Alopecurus myosuroides
# Condition set: Preemergence, Rate 250 g/ha; scale of 0 to 10 where 0 is no effect and 10 is complete control
Endpoint name: Plant response rating, Blackgrass
Answers are plain numbers.

CCN(Cc1ccccc1)C(=O)n1oc(=O)n(-c2c(C)cccc2C)c1=O 0
Cc1ccccc1-n1c(=O)on(C(=O)N(c2ccc(F)c(F)c2)C(C)C)c1=O 2
CC(C)N(C(=O)n1oc(=O)n(-c2cnn(C)c2Cl)c1=O)c1ccc(F)cc1 1

Data request: Report Plant response rating, Blackgrass for `Cc1ccc(N(C(=O)n2oc(=O)n(-c3ccccc3C)c2=O)C(C)C)cc1` please.
Data returned: 1

###

For each record, write down the corresponding Giant foxtail plant response rating.
# System: giant foxtail
# Experimental details: Test B pre/postemergence giant foxtail
# Format: in vivo, Setaria faberii
# Condition set: Postemergence, Rate 125 g/ha; scale of 0 to 10 where 0 is no effect and 10 is complete control
Answers are plain numbers.

Past entries and their recorded results:
Compound	System tested	Giant foxtail plant response rating
CC(C)N(C(=O)n1oc(=O)n(C)c1=O)c1ccc(F)cc1	giant foxtail	9
C#CC(C=C(C)C)n1c(=O)on(C(=O)N(c2ccccc2)C(C)C)c1=O (stereo not shown)	giant foxtail	3
CC(C)N(C(=O)n1oc(=O)n(CCF)c1=O)c1ccc(Cl)cc1	giant foxtail	9
CC(C)N(C(=O)n1oc(=O)n(C2CCCCC2)c1=O)c1ccccc1	giant foxtail	7
CC(C)N(C(=O)n1oc(=O)n(CCF)c1=O)c1ccc(F)cc1F	giant foxtail	9

Hi, could you look up Giant foxtail plant response rating for each item in my list?
1. CC(C)N(Cc1ccccc1)C(=O)n1oc(=O)n(C(C)C)c1=O
2. CC(C)N(C(=O)n1oc(=O)n(N(C)C)c1=O)c1ccc(F)cc1
3. CC(C)N(C(=O)n1oc(=O)n(-c2cccc3c2CCCC3)c1=O)c1ccc(F)cc1

Data returned:
1: 1; 2: 7; 3: 0

Give measured Giant foxtail plant response rating for every item shown.
1. CC(C)N(C(=O)n1oc(=O)n(CC2=NOCCO2)c1=O)c1ccc(Cl)cc1
2. CCN(CC)C(=O)n1oc(=O)n(Cc2ccccc2)c1=O

Data returned:
1. 7
2. 0

###

# System: morningglory
# Experimental details: Test B pre/postemergence morningglory
# Assay type: in vivo, Ipomoea hederacea
# Condition set: Postemergence, Rate 125 g/ha; scale of 0 to 10 where 0 is no effect and 10 is complete control
# Experimental: […] At the same time, these crop and weed species were also treated with postemergence applications of test chemicals formulated in the same manner. […] Treated plants and controls were maintained in a greenhouse for twelve to sixteen days, after which all species were compared to controls and visually evaluated. […]
Endpoint name: Morningglory plant response rating
Answers are plain numbers.

Molecule	System tested	Numeric readout
CC(C)N(C(=O)n1oc(=O)n(-c2cnn(C)c2)c1=O)c1ccccc1	morningglory	9
CC(C)N(C(=O)n1oc(=O)n(CCF)c1=O)c1ccc(F)cc1F	morningglory	3
CC(C)N(C(=O)n1oc(=O)n(N(C)C)c1=O)c1ccc(F)cc1	morningglory	1
COC1CCC(Cn2c(=O)on(C(=O)N(c3ccc(Cl)cc3)C(C)C)c2=O)=NO1 (stereo not drawn)	morningglory	3

Batch lookup, Morningglory plant response rating per entry.
1. CCCn1c(=O)on(C(=O)N(c2ccccc2)C(C)C)c1=O
2. CC(C)N(C(=O)n1oc(=O)n(CC2=NOCCO2)c1=O)c1ccc(Cl)cc1

Data returned:
1. 8
2. 3
